# maps each entry to its AC50
Test system: INS-1E rat beta cells, no cytokines, CellTiter-Glo ATP, 48 h
procedure-summary: cytokine-free beta-cell viability effect – INS-1E rat cells, ATP luminescence, cherry pick, counter-screen for beta-cell apoptosis protection project, dose response (AID 463229)

Solved cases (5 shown):
molecule	AC50
COc1ccc(/C=C/C(=O)c2ccc([N+](=O)[O-])o2)cc1	12.5 µM
COc1ccc(-c2sc3ccccc3c2-c2ccc(OCCN3CCCCC3)cc2)cc1	14.8 µM
CCOc1ccc(-c2cc(C(=O)NCCCn3ccnc3)c3cc(Br)ccc3n2)cc1	12.6 µM
CC1=NOC(=O)/C1=C/c1ccc(-c2ccc(Cl)cc2)o1	7 µM
CCOC(=O)/C(=C\c1ccc([N+](=O)[O-])cc1)C(=O)c1cc(C(C)=O)c(Nc2ccccc2)s1	2.41 µM

AC50 for O=C1N/C(=N/N=C/c2ccccc2O)SC1Cc1ccc(F)cc1 (stereo not given) ?
14.6 µM

Cool, now Cc1ccc(C(C)C)c(OCc2nn(CC(=O)c3ccc(OC(F)F)cc3)c3[n+]2CCCCC3)c1
4.43 µM

Cool, now O=C1C(Nc2ccccc2)=C/C(=N/S(=O)(=O)c2cccs2)c2ccccc21
2.07 µM

Cool, now CC(NC(=S)NC1CCCCC1)c1ccc(C(C)(C)C)cc1 (stereo not given)
11.2 µM

Cool, now Cc1csc2c(N3CCN(C(=O)c4ccc(C(C)(C)C)cc4)CC3)ncnc12
14.9 µM

====

System: INS-1E rat beta cells, no cytokines, CellTiter-Glo ATP, 48 h
procedure-summary: cytokine-free beta-cell viability effect – INS-1E rat cells, ATP luminescence, cherry pick, counter-screen for beta-cell apoptosis protection project, dose response (AID 463229)
measured-parameter: AC50

compound	assay-result
Cc1occc1C(=O)N/N=C/c1c(O)ccc2ccccc12	7.95 µM

AC50 for Cc1cc(=O)[nH]c(N/N=C/c2ccccn2)n1 ?
5.21 µM

Cool, now CCCC(=O)NC(c1ccccc1)c1ccc2cccnc2c1O (configuration not stated)
2.85 µM

Cool, now COc1cccc(/C=N/NC(=O)c2cc3cc([N+](=O)[O-])ccc3s2)c1O
7.08 µM

Cool, now O=C(Nc1ccc(Cl)cc1)Nc1csc([N+](=O)[O-])c1
7.65 µM

Cool, now Cc1ccc2c(c1)c(/C=C/c1cc[n+](C)cc1)c(C)n2C
3.97 µM

Cool, now COC(=O)c1nc(-c2ccc3c(n2)C(=O)C(N)=C(OC)C3=O)c(N)c(-c2ccc(OC)c(OC)c2O)c1C
6.46 µM

Cool, now COc1ccc(-n2cc(-c3ccc(OC(F)F)cc3)[n+]3c2CCCCC3)cc1
2.07 µM

====

System: INS-1E rat beta cells, no cytokines, CellTiter-Glo ATP, 48 h
procedure-summary: cytokine-free beta-cell viability effect – INS-1E rat cells, ATP luminescence, cherry pick, counter-screen for beta-cell apoptosis protection project, dose response (AID 463229)
measured-parameter: AC50

molecule	AC50
C=C(C)C(=O)N1CC2(CC(c3cccc(NC(=O)COc4ccc(Cl)cc4)c3)=NO2)C[C@@H]1C(N)=O (some centres undefined)	12.8 µM
O=S(=O)(/C(=C/c1ccc(C(F)(F)F)cc1)c1nc2ccccc2[nH]1)c1ccccc1	5.45 µM
O=C(CSc1nnc(Cn2nnc3ccccc32)o1)N(Cc1ccc(F)cc1)c1ccccc1	7.94 µM
CC[C@H](C)Cc1cn([C@@H](CCCCNC(=O)OC(C)(C)C)C(=O)NCCCCCCCCCCC(=O)N2CCN(C(=O)OC(C)(C)C)CC2)nn1	20.2 µM
O=C(OCn1ncc(Cl)c(Cl)c1=O)c1ccc(F)cc1	7.02 µM
CCOC(=O)N1CCN(S(=O)(=O)c2ccc(C(=O)NNc3nc4c(C)cc(C)cc4s3)cc2)CC1	11.3 µM
Oc1c(CN2CCN(c3ccc(F)cc3)CC2)cc(Cl)c2cccnc12	4.27 µM
O=S(=O)(Nc1nc2ccccc2nc1Nc1ccc(N2CCOCC2)cc1)c1cc(Cl)ccc1Cl	6.63 µM
COc1ccc(Cc2nnc(N/N=C/c3ccc(O)cc3)[nH]c2=O)cc1OC	4.32 µM
N#C/C(=N\Nc1cccc([N+](=O)[O-])c1)C(=O)c1ccc(Br)cc1	7.29 µM

AC50 for CNc1ccc2oc(C[C@H]3O[C@@]4(CC[C@H]3C)O[C@H]([C@H](C)C(=O)c3ccc[nH]3)[C@H](C)C[C@H]4C)nc2c1C(=O)O ?
1.32 µM

Cool, now COc1ccc(CCNC(=O)c2cc3c(=O)n4cccc(C)c4nc3n(Cc3ccco3)c2=N)cc1OC
9.18 µM

Cool, now COc1cc2ccccc2cc1C(=O)Nc1sc2c(c1C(N)=O)CCN(C(C)C)C2
9.16 µM

Cool, now COc1cccc(C(NC(C)=O)c2ccc3cccnc3c2O)c1 (centres undefined)
3.78 µM

Cool, now O=C(Nc1ccc(F)cc1)Nc1cc(OCC(F)(F)F)cc(OCC(F)(F)F)c1
2.25 µM
